Biological target: hTSLP/hTSLPR interaction (Homo sapiens, UniProt Q969D9)
Construct: human TSLP28–159 with thrombin cleavage site at C-terminus; thrombin cleavage site (C); 8xHis (from vector pAB-bee-8xHis) (C, cleaved yes); made in house; host or cells: Trichoplusia ni High-Five cells, baculovirus (secreted)
Sequence (Q969D9 28-159): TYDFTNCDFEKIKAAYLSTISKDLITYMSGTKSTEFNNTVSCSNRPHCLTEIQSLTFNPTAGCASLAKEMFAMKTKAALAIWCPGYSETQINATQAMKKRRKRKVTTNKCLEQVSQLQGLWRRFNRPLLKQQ
Assay: ELISA of hTSLP/hTSLPR interaction (FLAG-hTSLP, hTSLPR-His)
Format: binding
Settings: 1 mM; read-out: % inhibition (hTSLP-inhibitory activity by ELISA)
Kindly supply the reported inhibition at 1000 µM values for the records listed here.
Give a bare numeral; the unit % is implied.

INPUT: Query inhibition at 1000 µM for O=C1CC(c2c(O)cccc2O)Oc2cc(O)cc(O)c21 (stereo not shown) [Compound 1f, 2′,5,6′,7-tetrahydroflavanone]
OUTPUT: 8.4

INPUT: Query inhibition at 1000 µM for COc1cc2oc(-c3ccccc3)cc(=O)c2c(OC)c1OC
OUTPUT: 12

INPUT: Query inhibition at 1000 µM for O=c1cc(-c2ccccc2)oc2ccc(O)cc12
OUTPUT: 38.7

INPUT: Query inhibition at 1000 µM for COc1c(O)cc2oc(-c3ccccc3)cc(=O)c2c1O
OUTPUT: 11.6

INPUT: Query inhibition at 1000 µM for O=c1cc(-c2ccccc2)oc2cccc(O)c12
OUTPUT: 16.8

INPUT: Query inhibition at 1000 µM for O=c1cc(-c2ccccc2)oc2cc(O)ccc12
OUTPUT: 23.3

INPUT: Query inhibition at 1000 µM for COc1c(O)ccc(O)c1-c1cc(=O)c2c(O)cc(O)c(OC)c2o1
OUTPUT: 26.3

INPUT: Query inhibition at 1000 µM for O=C(O)[C@H]1O[C@@H](Oc2cc3oc(-c4ccccc4)cc(=O)c3c(O)c2O)[C@H](O)[C@@H](O)[C@@H]1O
OUTPUT: 19.9

====

Kindly supply the reported inhibition at 300 µM values for the records listed here.
Target: hTSLP/hTSLPR interaction (Homo sapiens)
Construct: human TSLP28–159 with thrombin cleavage site at C-terminus; thrombin cleavage site (C); 8xHis (from vector pAB-bee-8xHis) (C, cleaved yes); made in house; host or cells: Trichoplusia ni High-Five cells, baculovirus (secreted)
Experiment: ELISA of hTSLP/hTSLPR interaction (FLAG-hTSLP, hTSLPR-His);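 note: His-tagged hTSLPR captured on Ni-NTA plates, compounds plus FLAG-hTSLP incubated 18 h at 4 °C, bound ligand detected with HRP anti-FLAG, OD 450 nm relative to control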
Type: binding
Conditions: 0.3 mM; read-out: % inhibition (hTSLP-inhibitory activity by ELISA)

INPUT: Under hTSLP/hTSLPR interaction (Homo sapiens): report inhibition at 300 µM of COc1cc2oc(-c3ccccc3)cc(=O)c2c(OC)c1OC [Compound 2] .
OUTPUT: < 5%

INPUT: Under hTSLP/hTSLPR interaction (Homo sapiens): report inhibition at 300 µM of O=c1cc(-c2cccc(-c3ccc(O)cc3)c2)oc2cc(O)cc(O)c12 [Compound 10a] .
OUTPUT: > 50%

INPUT: Under hTSLP/hTSLPR interaction (Homo sapiens): report inhibition at 300 µM of O=c1cc(-c2cccc(-c3ccc(O)cc3)c2)oc2cc(O)c(O)cc12 [Compound 10g] .
OUTPUT: > 50%

INPUT: Under hTSLP/hTSLPR interaction (Homo sapiens): report inhibition at 300 µM of COc1c(O)cc(O)c2c(=O)cc(-c3ccccc3)oc12 [Compound 1b, wogonin] .
OUTPUT: < 5%

INPUT: Under hTSLP/hTSLPR interaction (Homo sapiens): report inhibition at 300 µM of O=c1cc(-c2cccc(-c3ccc([N+](=O)[O-])cc3)c2)oc2cc(O)c(O)cc12 [Compound 10h] .
OUTPUT: > 50%

INPUT: Under hTSLP/hTSLPR interaction (Homo sapiens): report inhibition at 300 µM of COc1cccc(O)c1-c1cc(=O)c2c(O)c(OC)c(OC)c(OC)c2o1 [Compound 1d, skullcapflavone II] .
OUTPUT: < 5%

INPUT: Under hTSLP/hTSLPR interaction (Homo sapiens): report inhibition at 300 µM of O=c1cc(-c2cccc(-c3ccccc3)c2)oc2cc(O)c(O)cc12 [Compound 10e] .
OUTPUT: > 50%
